// IC50 lookup, one value per entry
# System: HCV 1aY93H mutant replicon
# EXPERIMENT DESCRIPTION: HCV replicon assay, genotype 1a Y93H mutant
# Format: cell-based, Hepatitis C virus
# REPORTED CONDITIONS: Hepatitis C virus, read-out: 1aY93H IC50 (nM), HCV genotype 1a, Y93H mutant
# Experimental: General procedure: The luciferase replicon transient transfection assay measures the ability of a test compound to inhibit the replication of a transiently-transfected HCV luciferase-bearing wild-type or mutant replicon in cured human hepatoma cells (Huh7.5). The inhibition of HCV replication was measured by quantification of luciferase protein expression. […]
MEASURED QUANTITY: IC50 (nM)

COMPOUND	TEST TARGET	MEASURED QUANTITY	UNIT OF MEASUREMENT	CMP	EXPERIMENTAL VALUE
CC(C)(C)NC(=O)N1CC(F)C[C@H]1c1ncc(-c2ccc3c(ccc4oc5cc(-c6cnc([C@@H]7C[C@@H](F)CN7C(=O)NC(C)(C)C)[nH]6)ccc5c(=O)c43)c2)[nH]1 (stereo in doubt)	HCV 1aY93H mutant replicon	IC50	nM	=	96.2
COC(=O)N[C@H](C(=O)N1CCC[C@H]1c1ncc(-c2ccc3c(F)c4oc5ccc(-c6cnc([C@@H]7CCCN7C(=O)[C@@H](NC(=O)OC)C(C)C)[nH]6)cc5c(=O)c4cc3c2)[nH]1)C(C)C	HCV 1aY93H mutant replicon	IC50	nM	≥	100
CCC1(CC)c2ccc(-c3cnc([C@H]4CCCN4C(=O)[C@@H](NC(=O)OC)C4CCOCC4)[nH]3)cc2Oc2ccc3cc(-c4cnc([C@H]5CCCN5C(=O)[C@H](NC(=O)OC)C5CCOCC5)[nH]4)ccc3c21	HCV 1aY93H mutant replicon	IC50	nM	=	0.072
CC(C)(C)OC(=O)N1CC(F)C[C@H]1c1ncc(-c2ccc3c(F)c4oc5ccc(-c6cnc([C@@H]7CC(F)CN7C(=O)OC(C)(C)C)[nH]6)cc5c(=O)c4cc3c2)[nH]1 (stereo in doubt)	HCV 1aY93H mutant replicon	IC50	nM	=	2460
CCC1c2ccc(-c3cnc([C@@H]4CCCN4C(=O)[C@@H](NC(=O)OC)C(C)C)[nH]3)cc2Oc2ccc3cc(-c4cnc([C@@H]5CCCN5C(=O)[C@@H](NC(=O)OC)C(C)C)[nH]4)ccc3c21 (single isomer, unassigned)	HCV 1aY93H mutant replicon	IC50	nM	=	11.7

---

// IC50 lookup, one value per entry
# Test system: HCV genotype 3a NS5A within the 1b-replicon
# EXPERIMENT DESCRIPTION: HCV replicon assay, genotype 3a (NS5A intergenotypic stable cell line)
# Assay type: cell-based, Hepatitis C virus
# REPORTED CONDITIONS: read-out: 3a IC50; HCV genotype 3a

MOLECULE	UNIT OF MEASUREMENT	IC50
CCC1c2ccc(-c3cnc([C@@H]4CCCN4C(=O)[C@@H](NC(=O)OC)C4CCOCC4)[nH]3)cc2Oc2ccc3cc(-c4cnc([C@@H]5CCCN5C(=O)[C@@H](NC(=O)OC)C5CCOCC5)[nH]4)ccc3c21 (single isomer, unassigned) [Compound 14]	nM	0.034
COC(=O)N[C@H](C(=O)N1CCC[C@H]1c1ncc(-c2ccc3c(c2)Oc2ccc4cc(-c5cnc([C@@H]6CCCN6C(=O)[C@@H](NC(=O)OC)C6CCOCC6)[nH]5)ccc4c2C3C)[nH]1)C1CCOCC1 (single isomer, unassigned)	nM	0.055
CCC1c2ccc(-c3cnc([C@@H]4CCCN4C(=O)[C@@H](NC(=O)OC)C4CCOCC4)[nH]3)cc2Oc2ccc3cc(-c4cnc([C@@H]5CCCN5C(=O)[C@@H](NC(=O)OC)C5CCOCC5)[nH]4)ccc3c21 (single isomer, unassigned) [Compound 15]	nM	0.218
CCC1c2ccc(-c3cnc([C@@H]4CCCN4C(=O)[C@@H](NC(=O)OC)C(C)C)[nH]3)cc2Oc2ccc3cc(-c4cnc([C@@H]5CCCN5C(=O)[C@@H](NC(=O)OC)C(C)C)[nH]4)ccc3c21 (single isomer, unassigned)	nM	1.72
COC(=O)N[C@H](C(=O)N1CCC[C@H]1c1ncc(-c2ccc3c(c2)Oc2ccc4cc(-c5cnc([C@@H]6CCCN6C(=O)[C@@H](NC(=O)OC)C(C)C)[nH]5)ccc4c2C3C)[nH]1)C(C)C (single isomer, unassigned)	nM	0.721

---

// IC50 lookup, one value per entry
# Test system: HCV 1aY93H mutant replicon
# EXPERIMENT DESCRIPTION: HCV replicon assay, genotype 1a Y93H mutant
# Format: cell-based, Hepatitis C virus
# REPORTED CONDITIONS: Hepatitis C virus, read-out: 1aY93H IC50 (nM), HCV genotype 1a, Y93H mutant
MEASURED QUANTITY: IC50 (nM)

COMPOUND	MEASURED QUANTITY	EXPERIMENTAL VALUE
COC(=O)N[C@H](C(=O)N1CCC[C@H]1c1ncc(-c2ccc3c(c2)Oc2ccc4cc(-c5cnc([C@@H]6CCCN6C(=O)[C@@H](NC(=O)OC)C(C)C)[nH]5)ccc4c2C3(C)C)[nH]1)C(C)C [Compound 7]	IC50	17.8
COC(=O)N[C@H](C(=O)N1CCC[C@H]1c1ncc(-c2ccc3c(c2)Oc2ccc4cc(-c5cnc([C@@H]6CCCN6C(=O)[C@@H](NC(=O)OC)C6CCOCC6)[nH]5)ccc4c2C3C)[nH]1)C1CCOCC1 (single isomer, unassigned) [Compound 11]	IC50	0.391
COC(=O)N[C@H](C(=O)N1CCC[C@H]1c1ncc(-c2ccc3c(c2)Oc2ccc4cc(-c5cnc([C@@H]6CCCN6C(=O)[C@@H](NC(=O)OC)C(C)C)[nH]5)ccc4c2C3C)[nH]1)C(C)C (single isomer, unassigned) [Compound 2]	IC50	10.6
CCC1(CC)c2ccc(-c3cnc([C@@H]4CCCN4C(=O)[C@H](NC(=O)OC)C(C)C)[nH]3)cc2Oc2cc3ccc(-c4cnc([C@@H]5CCCN5C(=O)[C@@H](NC(=O)OC)C(C)C)[nH]4)cc3cc21 [Compound 9]	IC50	3.28

---

# System: HCV 2b
# EXPERIMENT DESCRIPTION: HCV replicon assay, genotype 2b
# Type: cell-based, Hepatitis C virus
# REPORTED CONDITIONS: read-out: 2b IC50; HCV genotype 2b
pIC50: −log10 of the molar value.

COMPOUND	TEST TARGET	pIC50
COC(=O)N[C@H](C(=O)N1CCC[C@H]1c1ncc(-c2ccc3c(c2)Oc2ccc4cc(-c5cnc([C@@H]6CCCN6C(=O)[C@@H](NC(=O)OC)C(C)C)[nH]5)ccc4c2C3C)[nH]1)C(C)C (single isomer, unassigned) [Compound 2]	HCV 2b	7.43
CCC1c2ccc(-c3cnc([C@@H]4CCCN4C(=O)[C@@H](NC(=O)OC)C(C)C)[nH]3)cc2Oc2ccc3cc(-c4cnc([C@@H]5CCCN5C(=O)[C@@H](NC(=O)OC)C(C)C)[nH]4)ccc3c21 (single isomer, unassigned) [Compound 6]	HCV 2b	7.89
CCC1c2ccc(-c3cnc([C@@H]4CCCN4C(=O)[C@@H](NC(=O)OC)C(C)C)[nH]3)cc2Oc2ccc3cc(-c4cnc([C@@H]5CCCN5C(=O)[C@@H](NC(=O)OC)C(C)C)[nH]4)ccc3c21 (single isomer, unassigned) [Compound 5]	HCV 2b	9.11
COC(=O)N[C@H](C(=O)N1CCC[C@H]1c1ncc(-c2ccc3c(c2)Oc2ccc4cc(-c5cnc([C@@H]6CCCN6C(=O)[C@@H](NC(=O)OC)C6CCOCC6)[nH]5)ccc4c2C3C)[nH]1)C1CCOCC1 (single isomer, unassigned) [Compound 11]	HCV 2b	10.80
COC(=O)N[C@H](C(=O)N1CCC[C@H]1c1ncc(-c2ccc3c(c2)Oc2ccc4cc(-c5cnc([C@@H]6CCCN6C(=O)[C@@H](NC(=O)OC)C(C)C)[nH]5)ccc4c2C3C)[nH]1)C(C)C (single isomer, unassigned) [Compound 3]	HCV 2b	8.71
COC(=O)N[C@H](C(=O)N1CCC[C@H]1c1ncc(-c2ccc3c(c2)Oc2ccc4cc(-c5cnc([C@@H]6CCCN6C(=O)[C@@H](NC(=O)OC)C6CCOCC6)[nH]5)ccc4c2C3C)[nH]1)C1CCOCC1 (single isomer, unassigned) [Compound 12]	HCV 2b	9.31

---

# Test system: HCV 2b
# EXPERIMENT DESCRIPTION: HCV replicon assay, genotype 2b
# Type: cell-based, Hepatitis C virus
# REPORTED CONDITIONS: Hepatitis C virus, read-out: 2b IC50 (nM), HCV genotype 2b
// IC50 lookup, one value per entry

COMPOUND	IC50
CCN(CC)[C@@H](C(=O)N1C[C@H](F)C[C@H]1c1ncc(-c2ccc3c(ccc4oc5cc(-c6cnc([C@@H]7C[C@@H](F)CN7C(=O)[C@@H](c7ccccc7)N(CC)CC)[nH]6)ccc5c(=O)c43)c2)[nH]1)c1ccccc1	797 nM
COC(=O)N[C@H](C(=O)N1C[C@H](F)C[C@H]1c1ncc(-c2ccc3c(ccc4oc5cc(-c6cnc([C@@H]7C[C@@H](F)CN7C(=O)[C@@H](NC(=O)OC)C7CCOCC7)[nH]6)ccc5c(=O)c43)c2)[nH]1)C1CCOCC1	3.47 nM
CCC1(CC)c2ccc(-c3cnc([C@H]4CCCN4C(=O)[C@@H](NC(=O)OC)C4CCOCC4)[nH]3)cc2Oc2ccc3cc(-c4cnc([C@H]5CCCN5C(=O)[C@H](NC(=O)OC)C5CCOCC5)[nH]4)ccc3c21	0.032 nM
COC(=O)N[C@H](C(=O)N1C[C@H](F)C[C@H]1c1ncc(-c2ccc3c(F)c4oc5ccc(-c6cnc([C@@H]7C[C@@H](F)CN7C(=O)[C@@H](NC(=O)OC)C(C)C)[nH]6)cc5c(=O)c4cc3c2)[nH]1)C(C)C	≥ 100 nM
COC(=O)N[C@H](C(=O)N1CCC[C@H]1c1ncc(-c2ccc3c(c2)Oc2ccc4cc(-c5cnc([C@@H]6CCCN6C(=O)[C@@H](NC(=O)OC)C(C)C)[nH]5)ccc4c2C3(C)C)[nH]1)C(C)C	11 nM
CCC1c2ccc(-c3cnc([C@@H]4CCCN4C(=O)[C@@H](NC(=O)OC)C4CCOCC4)[nH]3)cc2Oc2ccc3cc(-c4cnc([C@@H]5CCCN5C(=O)[C@@H](NC(=O)OC)C5CCOCC5)[nH]4)ccc3c21 (single isomer, unassigned)	0.292 nM
CCC1(CC)c2ccc(-c3cnc([C@@H]4CCCN4C(=O)[C@H](NC(=O)OC)C(C)C)[nH]3)cc2Oc2cc3ccc(-c4cnc([C@@H]5CCCN5C(=O)[C@@H](NC(=O)OC)C(C)C)[nH]4)cc3cc21	4.53 nM
COC(=O)N[C@H](C(=O)N1C[C@H](F)C[C@H]1c1ncc(-c2ccc3c(ccc4oc5cc(-c6cnc([C@@H]7C[C@@H](F)CN7C(=O)[C@@H](NC(=O)OC)C(C)C)[nH]6)ccc5c(=O)c43)c2)[nH]1)C(C)C	89.8 nM
COC(=O)N[C@H](C(=O)N1CCC[C@H]1c1ncc(-c2ccc3c(ccc4oc5cc(-c6cnc([C@@H]7CCCN7C(=O)[C@@H](NC(=O)OC)C(C)C)[nH]6)ccc5c(=O)c43)c2)[nH]1)C(C)C	14.1 nM
COC(=O)N[C@H](C(=O)N1C[C@H](F)C[C@H]1c1ncc(-c2ccc3c(ccc4oc5ccc(-c6cnc([C@@H]7C[C@@H](F)CN7C(=O)[C@@H](NC(=O)OC)C(C)C)[nH]6)cc5c(=O)c43)c2)[nH]1)C(C)C	≥ 100 nM
